Measured pIC50 accompanies every entry in the list below.
system: Pa16c cells; test: Pa16c Cell Proliferation Assay; format: cell-based; details: Table 2, read-out: Inhibition of cell proliferation in Pa16c (IC50 class)
pIC50: −log10 of the molar value.

COMPOUND | pIC50
Cc1ccc(NC(=O)c2cncc(C(C)(C)F)c2)cc1-c1cncc(-c2cc(NC(=O)C3CC3)ncn2)c1 [Example 68] | 6.00 to 6.30
Cc1ccc(NC(=O)c2cc(C3CC3)cnn2)cc1-c1cc(NCCO)nc(-c2ccnc(NC(=O)C3CC3)c2)c1 [Example 100] | > 7.00
CC(=O)Nc1cc(-c2cc(-c3cc(NC(=O)c4cc(C(F)(F)F)cnn4)ccc3C)ccn2)ccn1 [Example 93] | 5.00 to 6.00
Cc1ccc(NC(=O)c2cc(C(F)(F)F)cnn2)cc1-c1ccnc(-c2ccnc(NC(=O)C3CC3)c2)c1 [Example 67] | > 7.00
Cc1ccc(NC(=O)c2cc(C(F)(F)F)cnn2)cc1-c1ccnc(-c2ccnc(NC(=O)C3CNCC3(F)F)c2)c1 (stereo not drawn) [Example 92] | 6.00 to 6.30
COCC(=O)Nc1cc(-c2nccc(-c3cc(NC(=O)c4cc(C(F)(F)F)cnn4)ccc3C)n2)ccn1 [Example 10] | 5.00 to 6.00
Cc1ccc(NC(=O)c2cc(C(F)(F)F)cnn2)cc1-c1ccnc(-c2cncn2C)c1 [Example 135] | 6.30 to 7.00
Cc1ccc(NC(=O)c2cncc(C(F)(F)F)n2)cc1-c1cncc(-c2cc(NC(=O)C3CC3)ncn2)c1 [Example 61] | 5.00 to 6.00
CC(=O)Nc1cc(-c2cncc(-c3cc(NC(=O)c4ccc(C(F)F)nc4)ccc3C)n2)ccn1 [Example 26] | 6.00 to 6.30

----------
test system: Pa16c cells; test: Pa16c Cell Proliferation Assay; type: cell-based; conditions: Table 2, read-out: Inhibition of cell proliferation in Pa16c (IC50 class)
pIC50: −log10 of the molar value.

MOLECULE | pIC50
CNCC(=O)Nc1cc(-c2cc(-c3cc(NC(=O)c4cc(C(C)(F)F)cnn4)ccc3C)ccn2)ccn1 [Example 112] | 6.30 to 7.00
Cc1ccc(NC(=O)c2cncc(C(F)(F)F)c2)cc1-c1cncc(-c2cc(NC(=O)C3CC3)ncn2)c1 [Example 66] | 6.00 to 6.30
CC(=O)Nc1cc(-c2cc(-c3cc(NC(=O)c4ccc(C(F)(F)F)nc4)ccc3C)ccn2)ccn1 [Example 24] | 6.30 to 7.00

----------
Measured pIC50 accompanies every entry in the list below.
system: HPAF-II cells; assay: HPAF-II Cell Proliferation Assay; assay type: cell-based; conditions: Homo sapiens, HPAF-II, HPAF-II cells; Table 2; read-out: Inhibition of cell proliferation in HPAF-II (IC50 class)
pIC50: −log10 of the molar value.

COMPOUND | SYSTEM NAME | pIC50
Cc1ccc(NC(=O)c2cc3c(nn2)CCC3)cc1-c1ccnc(-c2ccnc(NC(=O)C3CC3)c2)c1 [Example 98] | HPAF-II cells | 5.00 to 6.00
Cc1ccc(NC(=O)c2cc(C(F)(F)F)cnn2)cc1-c1ccnc(-c2ccnc(NC(=O)C3CC3)c2)c1 [Example 67] | HPAF-II cells | > 7.00
Cc1ccc(NC(=O)c2cc(C3CC3)cnn2)cc1-c1nc(NCCO)cc(-c2ccnc(NC(=O)C3CC3)c2)n1 [Example 102] | HPAF-II cells | 5.00 to 6.00
Cc1ccc(NC(=O)c2cc(C(F)(F)F)cnn2)cc1-c1cncc(-c2ccnc(NC(=O)C3CC3)c2)c1 [Example 39] | HPAF-II cells | 6.00 to 6.30
Cc1ccc(NC(=O)c2cc(Cl)cnn2)cc1-c1ccnc(-c2ccnc(NC(=O)C3CC3)c2)c1 [Example 40] | HPAF-II cells | 6.00 to 6.30
CC(=O)Nc1cc(-c2cc(-c3cc(NC(=O)c4ccc(C(F)(F)F)nc4)ccc3C)ccn2)ccn1 [Example 24] | HPAF-II cells | > 7.00
Cc1ccc(NC(=O)c2cncc(C(C)(C)C#N)c2)cc1-c1ccnc(-c2ccnc(NC(=O)C3CC3)c2)c1 [Example 105] | HPAF-II cells | 6.30 to 7.00
Cc1ccc(NC(=O)c2cc(C(F)(F)F)cnn2)cc1-c1ccnc(-c2cnn(C)c2)c1 [Example 114] | HPAF-II cells | 6.30 to 7.00
Cc1ccc(NC(=O)c2cc(C(C)(F)F)cnn2)cc1-c1cncc(-c2cc(NC(=O)C3CC3)ncn2)c1 [Example 63] | HPAF-II cells | 6.30 to 7.00
Cc1ccc(NC(=O)c2cc(C3CC3)cnn2)cc1-c1cncc(-c2cc(NC(=O)C3CC3)ncn2)c1 [Example 69] | HPAF-II cells | 6.00 to 6.30
Cc1ccc(NC(=O)c2cc(C#N)cnn2)cc1-c1cc(N[C@H](C)CO)nc(-c2ccnc(NC(=O)C3CC3)c2)c1 [Example 151] | HPAF-II cells | 5.00 to 6.00
Cc1ccc(NC(=O)c2cc(C(F)(F)F)cnn2)cc1-c1ccnc(-c2ccoc2)c1 [Example 145] | HPAF-II cells | 6.30 to 7.00
CNc1cc(-c2cc(-c3cc(NC(=O)c4cc(C(F)(F)F)cnn4)ccc3C)ccn2)ccn1 [Example 50] | HPAF-II cells | 6.30 to 7.00
Cc1cc(F)c(NC(=O)c2cc(C(F)(F)F)cnn2)cc1-c1ccnc(-c2ccnc(NC(=O)C3CC3)c2)c1 [Example 60] | HPAF-II cells | 5.00 to 6.00
Cc1ccc(NC(=O)c2ccc(C(F)(F)F)nc2)cc1-c1cncc(-c2ccnc(NC(=O)C3CC3)c2)c1 [Example 72] | HPAF-II cells | 6.00 to 6.30
Cc1ccc(NC(=O)c2cc(C(F)(F)F)cnn2)cc1-c1cc(N[C@H](C)CO)nc(-c2c(C)n[nH]c2C)c1 [Example 122] | HPAF-II cells | 6.00 to 6.30
Cc1ccc(NC(=O)c2cc(C(F)(F)F)cnn2)cc1-c1ccnc(-c2ccnc(NC(=O)C3(F)CC3)c2)c1 [Example 4] | HPAF-II cells | 6.30 to 7.00
Cc1ccc(NC(=O)c2cnc(C(F)(F)F)nc2)cc1-c1ccnc(-c2cn[nH]c2)c1 [Example 126] | HPAF-II cells | 6.30 to 7.00
